# assay system: 11β-HSD2 (Ovis aries)
# Construct: incubating sheep kidney microsomal fraction (6.5 μg protein) with 50 nM corticosterone; from tissue; host or cells: sheep kidney microsomal fraction
# assay summary: 11β-HSD2 enzyme activity in sheep kidney microsomes
# Format: biochemical
# study conditions: 11β-HSD2, sheep kidney microsomes, 50 nM corticosterone, NAD+; aldosterone, cortisol, corticosterone series; read-out: Dehydrogenase [S] = 50 nM
result type: IC50 (nM)
Reply with just the number (in nM).

Task: Using the record for C[C@]12CC[C@@H](O)C[C@H]1CC[C@@H]1[C@H]2[C@@H](O)C[C@]2(C=O)[C@@H](C(=O)CO)CC[C@@H]12 , report its IC50.
Result: 500

====

# assay system: UniProtKB P50168
# assay summary: Table 1: inhibition of 11β-HSD2 dehydrogenase
# Type: biochemical
# study conditions: Table 1, inhibition in words
result type: 11β-HSD2 Dehydrogenase

• C[C@]12CCC(=O)C=C1CC[C@@H]1[C@H]2C(=O)C[C@]2(C)C(=O)CC[C@H]12 (stereo in doubt) = No Inhibition
• C[C@H](CCC(=O)O)[C@H]1CC[C@H]2[C@@H]3[C@H](O)C[C@@H]4C[C@H](O)CC[C@]4(C)[C@H]3CC[C@]12C = No Inhibition

====

# assay system: 11β-HSD2 (Ovis aries, UniProt P50168)
# Construct: incubating sheep kidney microsomal fraction (6.5 μg protein) with 50 nM corticosterone; from tissue; host or cells: sheep kidney microsomal fraction
# assay summary: 11β-HSD2 enzyme activity in sheep kidney microsomes
# Format: biochemical
# study conditions: 11β-HSD2, sheep kidney microsomes, 50 nM corticosterone, NAD+; aldosterone, cortisol, corticosterone series; read-out: Dehydrogenase [S] = 50 nM
# Source text: The enzymatic reaction was termninated by addition of methanol and synthesis of 11-dehydro-corticosterone was quantitated by HPLC as described above.
result type: IC50 (nM)
Reply with just the number (in nM).

* C[C@]12CC[C@@H](O)C[C@H]1CC[C@@H]1[C@H]2[C@@H](O)C[C@]2(C)[C@@H](C(=O)CO)CC[C@@H]12 [3α,5α-TH-Corticosterone, 5α-Pregnan-3α,11β,21-triol-20-one] | 260

Pending compound:
Task: Which IC50 is reported with 11β-HSD2 (Ovis aries, UniProt P50168) for this entry: C[C@]12CC[C@@H](O)C[C@H]1CC[C@@H]1[C@H]2C(=O)C[C@]2(C)[C@@H](C(=O)CO)CC[C@@H]12 [3α,5α-TH-11-dehydrocorticosterone, 5α-Pregnan-3α,21-diol-11,20-dione] ?
Result: 800

====

# assay system: 11β-HSD1 Reductase (Rattus norvegicus)
# Sequence (P16232 whole entry): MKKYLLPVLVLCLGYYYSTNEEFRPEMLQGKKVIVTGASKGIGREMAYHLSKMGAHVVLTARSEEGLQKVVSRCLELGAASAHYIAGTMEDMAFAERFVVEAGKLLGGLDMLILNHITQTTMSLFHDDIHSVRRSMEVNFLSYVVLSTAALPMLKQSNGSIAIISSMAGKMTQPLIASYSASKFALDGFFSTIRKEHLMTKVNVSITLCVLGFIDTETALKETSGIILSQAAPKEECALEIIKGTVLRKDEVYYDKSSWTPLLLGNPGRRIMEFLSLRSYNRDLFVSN
# assay summary: 11β-HSD1 reductase assay in rat Leydig cell homogenates
# study conditions: rat Leydig cell homogenates, 600 nM 11-dehydro-corticosterone, NADPH; corticosteroid series
result type: Leydig Cell 11β-HSD1 Reductase [S]= 600 nM

- C[C@]12CC[C@@H](O)C[C@@H]1CC[C@@H]1[C@@H]2[C@@H](O)C[C@@]2(C)[C@H]1CC[C@]2(O)C(=O)CO [3α,5α-TH-Cortisol, 5α-Pregnan-3α,11β,17α,21-tetrol-20-one]: inactive
- C[C@]12CC[C@@H](O)C[C@H]1CC[C@@H]1[C@@H]2[C@@H](O)C[C@]2(C)[C@@H](C(=O)CO)CC[C@@H]12 [3α,5β-TH-Corticosterone, 5β-Pregnan-3α,11β,21-triol-20-one]: inactive
- C[C@]12CCC(=O)C=C1CC[C@@H]1[C@@H]2[C@@H](O)C[C@]2(C=O)[C@@H](C(=O)CO)CC[C@@H]12 [Aldosterone, 4-Pregnen-11,21-diol-3,20-dione-18-al, reference compound]: inactive

====

# assay system: 11β-HSD2 (Ovis aries, UniProt P50168)
# Construct: incubating sheep kidney microsomal fraction (6.5 μg protein) with 50 nM corticosterone; from tissue; host or cells: sheep kidney microsomal fraction
# assay summary: 11β-HSD2 enzyme activity in sheep kidney microsomes
# Type: biochemical
# study conditions: sheep kidney microsomes, corticosterone substrate; progesterone and androgen derivatives; read-out: Sheep kidney 11β-HSD2 [S] = 50 nM
result type: IC50 (µM)
Reply with just the number (in µM).

• CC(=O)[C@H]1CC[C@H]2[C@@H]3CC[C@H]4C[C@H](O)CC[C@]4(C)[C@H]3[C@@H](O)C[C@]12C = 0.12

Pending molecule:
Task: Using the record for C[C@]12CC[C@H](O)C[C@@H]1CC[C@H]1[C@@H]3CC[C@H](O)[C@@]3(C)CC(=O)[C@@H]12 , report its IC50.
Result: 8

====

# assay system: UniProt P16232
# assay summary: 11β-HSD1 reductase assay in rat Leydig cell homogenates;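 note: rat Leydig cell homogenate incubated 20 min at 37 °C, pH 7.4, with tritiated 11-dehydro-corticosterone and 3 mM NADPH, product measured by HPLC, inhibition from triplicate dose–response curves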
pIC50: −log10 of the molar value.
result type: pIC50

• C[C@]12CCC(=O)C=C1CC[C@@H]1[C@@H]2[C@@H](O)C[C@]2(C=O)[C@@H](C(=O)CO)CC[C@@H]12 [Aldosterone, 4-Pregnen-11,21-diol-3,20-dione-18-al, reference compound] = < 4.00

Task: Using the record for C[C@]12CC[C@@H](O)C[C@H]1CC[C@@H]1[C@H]2[C@@H](O)C[C@]2(C=O)[C@@H](C(=O)CO)CC[C@@H]12 , report its pIC50.
Result: < 4.00

Task: Using the record for CC(=O)[C@H]1CC[C@@H]2[C@@H]3CCC4=CC(=O)CC[C@]4(C)[C@@H]3C(=O)C[C@]12C (stereo in doubt) , report its pIC50.
Result: 5.02

Task: Using the record for CC(=O)[C@H]1CC[C@@H]2[C@@H]3CCC4=CC(=O)CC[C@]4(C)[C@@H]3[C@@H](O)C[C@]12C , report its pIC50.
Result: < 4.00

====

Parameter: pIC50. Scope: all listed entries.
# assay system: UniProt:P16232
# assay summary: 11β-HSD1 dehydrogenase assay in rat Leydig cell homogenates
# Type: biochemical
# Parameters: Freshly prepared rat Leydig cell homogenates were chosen since they provide a rich and reliable source of both 11β-HSD1 dehydrogenase and reductase; from tissue; host or cells: rat testicular Leydig cells, homogenate
# study conditions: rat Leydig cell homogenates, 600 nM corticosterone; progesterone and androgen derivatives; read-out: Leydig Cell 11β-HSDl Dehydrogenase [S] = 600 nM
Quick note: pIC50 means taking -log10 of the concentration in moles per liter.

Guide cases for pIC50, answers given:
- CC(=O)[C@H]1CC[C@H]2[C@@H]3CC[C@H]4C[C@H](O)CC[C@]4(C)[C@H]3[C@@H](O)C[C@]12C: 5.52
- CC(=O)[C@H]1CC[C@@H]2[C@@H]3CCC4=CC(=O)CC[C@]4(C)[C@@H]3[C@@H](O)C[C@]12C: 5.25

Pending compound:
Task: Using the record for C[C@]12CC[C@H](O)C[C@@H]1CC[C@H]1[C@@H]3CC[C@H](O)[C@@]3(C)CC(=O)[C@@H]12 , report its pIC50.
Result: 4.30

====

# assay system: 11β-HSD1 Dehydrogenase (Rattus norvegicus, UniProt P16232)
# Sequence (P16232 whole entry): as above
# assay summary: 11β-HSD1 dehydrogenase assay in rat Leydig cell homogenates;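 note: tritiated corticosterone conversion by 11β-HSD1 dehydrogenase in Leydig homogenates with 3 mM NADP at pH 8.4, 37 °C for 10 min, products resolved by HPLC, inhibition relative to uninhibited enzyme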
# Assay type: biochemical
# Set-up: Freshly prepared rat Leydig cell homogenates were chosen since they provide a rich and reliable source of both 11β-HSD1 dehydrogenase and reductase; from tissue; host or cells: rat testicular Leydig cells, homogenate
result type: IC50 (µM)
Reply with just the number (in µM).

• C[C@]12CC[C@@H](O)C[C@@H]1CC[C@@H]1[C@@H]2[C@@H](O)C[C@]2(C)[C@@H](O)CC[C@@H]12 = 5

Pending compound:
Task: Which IC50 is reported with 11β-HSD1 Dehydrogenase (Rattus norvegicus, UniProt P16232) for this entry: CC(=O)[C@H]1CC[C@H]2[C@@H]3CC[C@@H]4C[C@H](O)CC[C@]4(C)[C@H]3[C@@H](O)C[C@]12C ?
Result: 30

====

# assay system: 11β-HSD2 Dehydrogenase (Ovis aries, UniProt P50168)
# Sequence (P50168 1-427): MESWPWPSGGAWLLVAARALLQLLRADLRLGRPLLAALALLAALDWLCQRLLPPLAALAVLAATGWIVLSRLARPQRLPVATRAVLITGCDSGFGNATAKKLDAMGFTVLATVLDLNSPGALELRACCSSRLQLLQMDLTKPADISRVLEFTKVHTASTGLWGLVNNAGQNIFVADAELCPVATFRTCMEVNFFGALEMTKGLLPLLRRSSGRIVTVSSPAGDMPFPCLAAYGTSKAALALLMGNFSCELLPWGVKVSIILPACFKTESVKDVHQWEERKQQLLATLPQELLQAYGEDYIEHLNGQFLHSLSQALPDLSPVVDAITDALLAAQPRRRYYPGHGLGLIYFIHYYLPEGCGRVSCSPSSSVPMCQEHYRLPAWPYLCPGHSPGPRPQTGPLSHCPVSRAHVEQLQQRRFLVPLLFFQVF
# assay summary: Table 1: inhibition of 11β-HSD2 dehydrogenase
# Assay type: biochemical
# study conditions: Table 1, inhibition in words
result type: 11β-HSD2 Dehydrogenase

• C[C@]12CC[C@@H](O)C[C@H]1CC[C@@H]1[C@H]2[C@@H](O)C[C@]2(C)[C@@H](C(=O)CO)CC[C@@H]12 [3α,5α-TH-Corticosterone, 5α-Pregnan-3α,11β,21-triol-20-one] = Potent Inhibitor
• C[C@]12CC[C@@H](O)C[C@H]1CC[C@@H]1[C@H]2[C@@H](O)C[C@]2(C=O)[C@@H](C(=O)CO)CC[C@@H]12 [3α,5α-TH-Aldosterone, 5α-Pregnan-3α,11β,21-triol-20-one-18-al] = Potent Inhibitor
• CC(=O)[C@H]1CC[C@@H]2[C@@H]3CCC4=CC(=O)CC[C@]4(C)[C@@H]3C(=O)C[C@]12C (stereo in doubt) [11 -Keto-Progesterone, 4-Pregnen-3,11,20-trione] = Potent Inhibitor
